# assay procedure: Mouse PK, single oral gavage
# measurement context: mouse, in vivo, po, 0.3 mg/kg, Mouse Tmax, oral gavage, single dose 0.3 mg/kg
// map Tmax to label using bucket A (below 4 h), bucket B (4 h to below 6 h), bucket C (6 h or more)

# compound, group label
data = [
    ("O=C(Nc1ccc(OC(F)(F)F)cc1)NC1CCN(C(=O)C2=COCC2)CC1", "bucket B"),
    ("O=C(Nc1ccc(C(F)(F)F)cc1)NC1CCN(C(=O)C2CCOC2)CC1 (stereo not shown)", "bucket C"),
    ("O=C(Nc1ccc(C(F)(F)F)cc1)NC1CCN(C(=O)[C@@H]2CCOC2)CC1", "bucket A"),
    ("O=C(Nc1ccc(C(F)(F)F)cc1)NC1CCN(C(=O)c2ccoc2)CC1", "bucket C"),
    ("CC(C)C(=O)N1CCC(NC(=O)Nc2ccc(C(F)(F)F)c(F)c2)CC1", "bucket C"),
    ("O=C(Nc1ccc(C(F)(F)F)cc1)NC1CCN(C(=O)C2CCOCC2)CC1", "bucket B"),
    ("O=C(Nc1ccc(C(F)(F)F)cc1)NC1CCN(C(=O)c2cc[nH]c2)CC1", "bucket A"),
    ("O=C(Nc1ccc(OC(F)(F)F)cc1)NC1CCN(C(=O)[C@@H]2CCOC2)CC1", "bucket C"),
    ("CC[C@H](C)C(=O)N1CCC(NC(=O)Nc2ccc(OC(F)(F)F)c(F)c2)CC1 [drawing 88]", "bucket A"),
]

---

# assay procedure: Rat PK, single oral gavage
# Assay type: in vivo
# measurement context: rat, in vivo, single dose 0.1 mg/kg, PEG 300
Here, each record is paired with measured AUC data.
measured quantity: AUC (µM·h)

# substance smiles, unit abbreviation, result number
data = [
    ("CC(C)C(=O)N1CCC(NC(=O)Nc2ccc(OC(F)(F)F)c(F)c2)CC1", "µM·h", 0.637),
    ("CCOC(=O)N1CCC(NC(=O)Nc2ccc(OC(F)(F)F)c(F)c2)CC1", "µM·h", 1.33),
    ("O=C(Nc1ccc(OC(F)(F)F)c(F)c1)NC1CCN(C(=O)C2CCOCC2)CC1", "µM·h", 1.24),
]

---

# assay procedure: Mouse PK, single oral gavage
# measurement context: mouse, in vivo, po, 0.3 mg/kg, Mouse AUC, oral gavage, single dose 0.3 mg/kg, 20% PEG400 in oleic acid-rich triglyceride
Here, each record is paired with measured AUC data.
measured quantity: AUC (µM·h)

# compound, unit abbreviation, result number
measured = [
    ("O=C(Nc1ccc(OC(F)(F)F)cc1)NC1CCN(C(=O)c2ccoc2)CC1", "µM·h", 2.93),
    ("O=C(Nc1ccc(C(F)(F)F)cc1)NC1CCN(C(=O)c2cc[nH]c2)CC1", "µM·h", 0.083),
    ("O=C(Nc1ccc(OC(F)(F)F)cc1)NC1CCN(C(=O)C2=COCC2)CC1", "µM·h", 0.67),
    ("CC[C@H](C)C(=O)N1CCC(NC(=O)Nc2ccc(OC(F)(F)F)c(F)c2)CC1 [drawing 88]", "µM·h", 0.0998),
    ("CCC(=O)N1CCC(NC(=O)Nc2ccc(OC(F)(F)F)c(F)c2)CC1", "µM·h", 20.6),
    ("O=C(Nc1ccc(C(F)(F)F)cc1)NC1CCN(C(=O)C2=COCC2)CC1", "µM·h", 0.875),
    ("O=C(Nc1ccc(OC(F)(F)F)cc1)NC1CCN(C(=O)C2CCOC2)CC1 (centres unmarked)", "µM·h", 12.6),
    ("O=C(O)CC1(CC(=O)N2CCC(NC(=O)Nc3ccc(C(F)(F)F)cc3)CC2)CCCCC1", "µM·h", 11.6),
    ("CC(C)C(=O)N1CCC(NC(=O)Nc2ccc(OC(F)(F)F)c(F)c2)CC1", "µM·h", 4.78),
    ("O=C(Nc1ccc(OC(F)(F)F)c(F)c1)NC1CCN(C(=O)C2CCOCC2)CC1", "µM·h", 0.0985),
    ("O=C(Nc1ccc(C(F)(F)F)cc1)NC1CCN(C(=O)[C@@H]2CCOC2)CC1", "µM·h", 0.729),
]
